B1: TSN (parent)
chain: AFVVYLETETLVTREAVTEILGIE

- Variants of: B1
- protocol-notes: protein stability index of a GFP-peptide fusion (GPS, HEK-293T) (PSI 1-6); higher = more stable;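 further: lentivirally expressed fusions sorted by FACS into six bins by GFP to DsRed ratio, PSI derived from sequencing read proportions per bin multiplied by bin number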
- experimental-setup: c terminus: a fixed tail appended
metric-name: protein stability index
// response body must contain only the number

Sample answers from the record:
F2T | 2.74
V12L | 2.56
E9I | 2.44

Look at this variant and give its reported protein stability index. I20L
4.11

And what about the variant R14F ?
2.36

And what about the variant L21S ?
2.04

And what about the variant A1K ?
2.54

And what about the variant T8N ?
3.62
